Target: T1, hPAR3 (Biotin) peptide (human, biotin on the C-terminal lysine (SKB))
T1 construct: also called PAR3 peptide; PAR3 screening peptide
T1 peptide: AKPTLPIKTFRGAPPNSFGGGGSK
Experiment: ELISA, hybridoma supernatant
MEASURED ENDPOINT: binding to PAR3 ratio (ratio)
// units = ratio; emit number, no label

Which binding to PAR3 ratio value is on record for 5G RG1.D3.C2b (antibody, IgG1, V domains shown, also called MoB5G G1) VH: QVQLVESGGGVVQPGRSLRLSCVASGFTLSSYGMHWVRQAPGKGLEWVAVIWYDGSSKYYTDSVKGRFDISRDNSKNTLYLQMNILRAEDTAVYYCARETILIGGVPFDYWGQGTLVTVSS VL: EIVLTQSPGTLSLSPGERATLSCGASQSIRSNYLAWYQQKPGQAPRLLIYGASSRATGTPDRFSGSGSGTDFTLTITRLEPEDFALYYCQQYGRSYTFGQGTKLEIK ?
0.8

All figures here come from patent US20260184780A1.
